- MEASUREMENT_NOTES: Cytotoxicity assay (CellTiter 96 AQueous One)
- Type: cell-based
- EXPERIMENTAL_CONDITIONS: human
PROPERTY_NAME: CC50 at 48 h

Query :: Look up CC50 at 48 h: `CCC[C@H](NC(=O)[C@@H]1[C@H]2CCC[C@H]2CN1C(=O)[C@@H](NC(=O)[C@@H](NC(=O)c1cnccn1)C1CCCCC1)C(C)(C)C)C(=O)C(=O)NC1CC1`
Result :: > 20 µM
